The origin of these recorded values is patent US20180009871A1.

biological target: human GLP-1 receptor (GLP-1R) (human, UniProt P43220 24-463); assay: cell-based or functional assay
Sequence (P43220 24-463): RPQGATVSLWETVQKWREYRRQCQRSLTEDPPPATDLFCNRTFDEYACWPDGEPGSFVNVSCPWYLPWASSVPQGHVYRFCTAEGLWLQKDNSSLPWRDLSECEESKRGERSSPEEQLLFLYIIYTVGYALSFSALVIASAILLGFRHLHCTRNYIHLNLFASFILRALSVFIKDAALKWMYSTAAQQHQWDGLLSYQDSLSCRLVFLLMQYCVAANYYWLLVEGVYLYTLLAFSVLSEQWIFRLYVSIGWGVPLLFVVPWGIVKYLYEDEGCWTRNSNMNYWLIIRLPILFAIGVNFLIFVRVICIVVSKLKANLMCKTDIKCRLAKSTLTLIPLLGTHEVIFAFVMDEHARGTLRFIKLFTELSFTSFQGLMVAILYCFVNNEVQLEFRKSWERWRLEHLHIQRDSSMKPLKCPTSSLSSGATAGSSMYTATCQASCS
Where no end group is shown, it is not given here.
Collected hGLP1 pEC50 (cAMP) values appear next to each entry.

YSQGTFTSDYSKYLDSARAQEFVKWLEDEPKSKAPPPS [Compound A82]    < 9 pEC50

Query: Query (binder): YSHGTFTSDYSKYLDAARAQEFVKWLEDEPKSKSPPPS-NH2 [Compound A80] ; field requested: hGLP1 pEC50 (cAMP)
Response: < 9 pEC50

Query: Query (binder): YSHGTFTSDYSKYLDSARAQEFVKHLEDEPKSKSPPPS [Compound A84] ; field requested: hGLP1 pEC50 (cAMP)
Response: < 9 pEC50
